# protocol-description: Stability in Simulated Intestinal Fluid (SIF)
# Type: in vitro ADME
# Design: key: % parent compound remaining relative to 0-minute sample
# settings: % remaining at 1 h in simulated intestinal fluid
assay-readout: SIF (% remaining)

                                   molecule  number
0  CC(C)OCCn1c(=S)[nH]c(=O)c2c1ccn2COC(=O)CCCCNC(=O)[C@H](Cc1ccc(O)cc1)NC(=O)OC(C)(C)C.O=C(O)C(F)(F)F      89
1  CC(C)OCCn1c(=S)[nH]c(=O)c2c1ccn2COC(=O)[C@H]1CCN(C(=O)OC(C)(C)C)C1      64
2  CC(C)OCCn1c(=S)[nH]c(=O)c2c1ccn2COC(=O)CCCCNC(=O)[C@@H](N)Cc1c[nH]c2ccccc12.O=C(O)C(F)(F)F      83
3  CC(C)OCCn1c(=S)[nH]c(=O)c2c1ccn2COC(=O)CCCCNC(=O)[C@H](Cc1ccccc1)NC(=O)OCC1c2ccccc2-c2ccccc21.O=C(O)C(F)(F)F      90
4  CCOC(=O)N1CCCC1C(=O)NCCC(=O)OCn1ccc2c1c(=O)[nH]c(=S)n2CCOC(C)C.O=C(O)C(F)(F)F (stereo not drawn)      80
5  CC[C@H](C)[C@H](N)C(=O)NCCC(=O)OCn1ccc2c1c(=O)[nH]c(=S)n2CCOC(C)C.O=C(O)C(F)(F)F      84
